Molecular target: T1, Human ROBO2 overexpressed on HEK293 cells (human, UniProt Q9HCK4 22-1378)
T1 construct: also called ROBO2 cells; native ROBO2
T1 sequence: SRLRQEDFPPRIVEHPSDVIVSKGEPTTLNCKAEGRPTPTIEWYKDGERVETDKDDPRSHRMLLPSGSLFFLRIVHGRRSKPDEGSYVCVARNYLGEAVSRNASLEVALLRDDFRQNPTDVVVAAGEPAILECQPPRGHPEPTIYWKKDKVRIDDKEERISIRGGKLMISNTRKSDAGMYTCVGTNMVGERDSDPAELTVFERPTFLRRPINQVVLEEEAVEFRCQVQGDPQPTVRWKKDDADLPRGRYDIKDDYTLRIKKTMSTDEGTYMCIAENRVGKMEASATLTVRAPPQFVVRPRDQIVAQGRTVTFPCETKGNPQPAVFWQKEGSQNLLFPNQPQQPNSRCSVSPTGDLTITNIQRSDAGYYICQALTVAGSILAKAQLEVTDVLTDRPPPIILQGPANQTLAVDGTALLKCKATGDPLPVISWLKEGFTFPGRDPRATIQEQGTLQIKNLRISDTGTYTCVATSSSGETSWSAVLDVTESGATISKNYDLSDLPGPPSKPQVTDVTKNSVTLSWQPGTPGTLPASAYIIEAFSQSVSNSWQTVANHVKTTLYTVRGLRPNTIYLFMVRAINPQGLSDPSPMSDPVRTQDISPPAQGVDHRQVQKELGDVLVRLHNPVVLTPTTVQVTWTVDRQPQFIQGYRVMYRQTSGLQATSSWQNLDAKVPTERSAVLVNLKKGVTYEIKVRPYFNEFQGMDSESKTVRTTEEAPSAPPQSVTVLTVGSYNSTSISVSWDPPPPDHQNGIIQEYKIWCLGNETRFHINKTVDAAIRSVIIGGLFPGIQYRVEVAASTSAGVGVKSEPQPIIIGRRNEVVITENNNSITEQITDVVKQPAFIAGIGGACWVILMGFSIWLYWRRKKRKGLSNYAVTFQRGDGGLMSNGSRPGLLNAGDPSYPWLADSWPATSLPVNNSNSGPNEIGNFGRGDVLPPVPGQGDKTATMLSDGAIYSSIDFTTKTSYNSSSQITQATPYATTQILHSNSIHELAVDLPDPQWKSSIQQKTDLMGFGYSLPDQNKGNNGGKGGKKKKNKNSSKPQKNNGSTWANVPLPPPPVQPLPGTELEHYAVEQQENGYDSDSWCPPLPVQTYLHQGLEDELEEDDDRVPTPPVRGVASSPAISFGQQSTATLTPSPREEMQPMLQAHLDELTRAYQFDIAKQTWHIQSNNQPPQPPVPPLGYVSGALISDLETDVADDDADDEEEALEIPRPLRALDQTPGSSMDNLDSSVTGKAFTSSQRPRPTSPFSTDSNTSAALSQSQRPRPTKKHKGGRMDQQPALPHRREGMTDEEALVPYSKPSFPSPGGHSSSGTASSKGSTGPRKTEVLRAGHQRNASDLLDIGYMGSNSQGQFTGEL
Test: flow cytometry, Geo MFI ROBO2/ROBO1 HEK293 cells, 2.5 µg/ml
Exercise: state measured Fold Selectivity for ROBO2/ROBO1 for each of the binders provided.
Answers without a unit are incomplete; give the number and then its unit.

Task item: Return the recorded Fold Selectivity for ROBO2/ROBO1 value; entry: CTIR2-6 (antibody, human IgG1, kappa, V domains shown, CDR-shuffled IgG) VH: EVQLVQSGAEVKKPGASVKVSCKASGYTFTGYYMHWVRQAPGQGLEWMGWINPKSGATNFPQKFQGRVTMTRDTSITTAYMDLSRLRSDDTAVYYCARESGDDAFDIWGQGTMVTVSS VL: DIVMTQSPSSLSASVGDRVTITCRASQKISSYLNWYQQKPGKAPKLLIYAASSLQSGVPSRFSGSGSGTDFTLTISSLQPEDFATYYCQQSVGLFFGGGTKVEIKR
Reply: 35 fold

Task item: # return recorded Fold Selectivity for ROBO2/ROBO1 for entry Abcs40 (antibody, human IgG1, kappa, V domains shown, chain-shuffled IgG) VH: EVQLVQSGAEVKKPGASVKVSCKASGYTFTGYYMHWVRQAPGQGLEWMGWINPKDGDTEFPQKFQGRVTMTRDTSITTAYMDLSRLRSDDTAVYYCARESGDDAFDIWGQGTMVTVSS VL: DIVMTQSPSSLSASVGDRVTITCRASQSISSYLNWYQQKPGKAPKLLIYAASSLQSGVPSRFSGSGSGTDFTLTISSLQPEDFATYYCQQSVGLFFGGGTKVEIKR
Reply: 4.8 fold
